- Tested on: nude mice, LX-1 lung xenograft intrarenal, tumor weight T/C
- Experiment description: NCI In Vivo Anticancer Drug Screen. Data for tumor model Human Lung LX-1 Xenograft (intrarenal inoculation) in NU/NU Swiss (nude) mice
- Condition description: endpoint: mean tumor weight change; dose: 400.0 mg/kg/injection; schedule: Q04DX003 (sc); vehicle: saline with Tween-80; higher = larger tumour
Inconclusive results are not listed.
Quantity name: T/C

Consider the worked cases shown below.
CN=S(=O)(OCCCCCOS(=O)(=NC)c1ccccc1)c1ccccc1 (configuration not stated) = 77 % of control
CC1=C(/C=C/C(C)=C/C=C/C(C)=C/CO)C(C)(C)CCC1 = 111 % of control
COc1ccc(C(=O)c2no[n+]([O-])c2C(=O)c2ccc(OC)cc2)cc1 = 99 % of control

Please give T/C, item by item, for the list that follows.
1. BrC[P+](CBr)(CBr)CBr
2. C1OCN2CSCC12 (configuration not stated)
3. C/C(=N\NC(N)=O)c1cccc(/C(C)=N/NC(N)=O)n1
4. O/N=C/c1ccccc1O.O/N=C/c1ccccc1O.[Cu]
5. Cc1ccc2c(c1)N=C(Nc1ccccc1)N=S2(C)=O (configuration not stated)

Reply text:
["156 % of control", "63 % of control", "71 % of control", "93 % of control", "97 % of control"]

Report T/C for each item below.
1. Nc1cc2c3c(cccc3c1)C(=O)N(CCN1CCCC1)C2=O
2. CCc1ccc(C2=C(O)C(=O)C(c3ccc(CC)cc3)=C(O)C2=O)cc1
3. C/C=C/C=C1/OC(C)=C(C(C)=O)C1=O
4. O=C1NC(=O)C2C3C=CC(C12)C1C2C(=O)NC(=O)C2C31 (configuration not stated)

Reply text:
["46 % of control", "64 % of control", "110 % of control", "84 % of control"]

----------
- Test system: nude mice, LX-1 lung xenograft intrarenal, tumor weight T/C
- Experiment description: NCI In Vivo Anticancer Drug Screen. Data for tumor model Human Lung LX-1 Xenograft (intrarenal inoculation) in NU/NU Swiss (nude) mice
- Condition description: endpoint: mean tumor weight change; dose: 400.0 mg/kg/injection; schedule: Q04DX003 (sc); vehicle: suspension in saline; higher = larger tumour
Inconclusive results are not listed.
For each record, write down the corresponding T/C.

Recorded T/C, per entry:
O=c1[nH]c2c(ccc3cnccc32)c2c1CCC2 = 57 % of control
N=C(N)SCc1c2ccccc2c(CSC(=N)N)c2ccccc12 = 93 % of control

List reported T/C for each of these molecules:
1. Cn1/c2cc/c1=C(\c1ccc(S(=O)(=O)O)cc1)c1ccc([n-]1)/C(c1ccc(S(=O)(=O)O)cc1)=c1/cc/c([nH]1)=C(\c1ccc(S(=O)(=O)O)cc1)c1ccc([n-]1)/C=2c1ccc(S(=O)(=O)O)cc1.O.O=S(=O)(O)C(F)(F)F.[Cu+2]
2. O=C(O)C(CSC(c1ccccc1)(c1ccccc1)c1ccccc1)N=Cc1cccs1 (centres undefined)

Reply text:
109 % of control
55 % of control

----------
Kindly supply the reported T/C values for the records listed here.
- Tested on: nude mice, LX-1 lung xenograft intrarenal, tumor weight T/C
- Experiment description: NCI In Vivo Anticancer Drug Screen. Data for tumor model Human Lung LX-1 Xenograft (intrarenal inoculation) in NU/NU Swiss (nude) mice
- Condition description: endpoint: mean tumor weight change; dose: 50.0 mg/kg/injection; schedule: Q01DX010 (sc); vehicle: Klucel (hydroxypropylcellulose) (HPC); higher = larger tumour
Results filed as inconclusive are left out.

Some compounds with known T/C results, for comparison:
[N-]=[N+]=C1N=CN=C1c1ncn[nH]1 = 55 % of control
Cc1ccc(C(=O)[O][Hg][CH2]C2COC([CH2][Hg][O]C(=O)c3ccc(C)cc3)CO2)cc1 (stereo not given) = 58 % of control
Cn1cnc([N+](=O)[O-])c1S(=O)(=O)NCN1CCOCC1 = 67 % of control
CN(C)/N=N/c1nc[nH]c1C(N)=O = 4 % of control
COC(=O)Nc1cccc(-c2nc3ccc(NC(=O)OC)cc3c(=O)n2-c2ccccc2)c1 = 160 % of control

Answer for every listed entry: what is its T/C? The entries follow.
1. Cc1ccc2c(c1)C(=O)N(CC[P+](c1ccccc1)(c1ccccc1)c1ccccc1)C2=O
2. CN(C)N=Nc1ccccc1
3. CN(Cc1cnc2nc(N)nc(N)c2n1)c1c(Cl)cc(C(=O)NC(CCC(=O)O)C(=O)O)cc1Cl (stereo not given)
4. N#CC(C#N)=C/C=C/c1cccc([N+](=O)[O-])c1

Reply text:
1. 37 % of control
2. -98 % of control
3. 45 % of control
4. 83 % of control

Kindly note the recorded T/C for CC(=O)OCC1OC(OC2=C(CC=C(C)C)C(=O)c3ccccc3C2=O)C(OC(C)=O)C(OC(C)=O)C1OC(C)=O (stereo not given) , which is 97 % of control

Provenance of the data: PubChem BioAssay AID264
